The values you see were collected from paper PMC9555310.

# tgt: neutrophil elastase (NE) (Homo sapiens)
# Construct: purchased Calbiochem
# Sequence (P08246 30-267): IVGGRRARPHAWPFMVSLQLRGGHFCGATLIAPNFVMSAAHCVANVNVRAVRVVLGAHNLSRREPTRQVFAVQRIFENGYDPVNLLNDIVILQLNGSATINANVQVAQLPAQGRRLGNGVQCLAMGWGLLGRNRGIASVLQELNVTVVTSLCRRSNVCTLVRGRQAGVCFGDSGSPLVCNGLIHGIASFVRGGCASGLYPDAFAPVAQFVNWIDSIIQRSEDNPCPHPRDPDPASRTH
# assay_overview: Irreversible inhibition kinetics of neutrophil elastase (fluorogenic substrate progress curves)
# Type: biochemical
# assay_context: MeO-Succinyl-Ala-Ala-Pro-Val-NHMec 50 μM, PBS pH 7.4, 37°C, mean ± SD (n=2)
parameter: pKi
Units for pKi: none; it is -log10 of a concentration expressed in mol/L.

Query block: Report pKi for CC(C)N(CC(=O)NCC(=O)NCC(=O)NCCCOCCOCCOCCCNC(=O)CCCCC1SCC2NC(=O)NC21)C(=O)ON1C(=O)CCC1=O (stereo not drawn) [NAP800, Succinimidoyl-CO-NVal-Gly-Gly-PEG-Biotin] please.
Result block: 5.22
